Reference source for all entries: patent US12071404B2

Reported values of Kb for individual entries
# tgt: GPR17 (Homo sapiens, UniProt Q13304)
# Sequence (Q13304 whole entry): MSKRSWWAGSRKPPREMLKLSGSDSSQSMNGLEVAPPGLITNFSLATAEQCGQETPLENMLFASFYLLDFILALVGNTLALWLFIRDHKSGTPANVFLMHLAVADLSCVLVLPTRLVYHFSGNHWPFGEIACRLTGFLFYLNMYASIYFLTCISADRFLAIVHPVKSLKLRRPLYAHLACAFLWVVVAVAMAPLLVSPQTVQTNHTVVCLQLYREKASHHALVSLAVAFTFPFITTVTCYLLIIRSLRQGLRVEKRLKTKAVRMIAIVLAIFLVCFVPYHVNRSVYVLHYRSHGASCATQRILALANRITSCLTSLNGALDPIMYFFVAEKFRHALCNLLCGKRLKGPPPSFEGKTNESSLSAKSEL
# assay.notes: cAMP accumulation functional assay (HTRF, Schild analysis)
# Type: cell-based
# Set-up: host or cells: Flp-In T-REx CHO
# condition.context: CHO hGPR17 cells, Schild analysis vs MDL29,951, 5 μM forskolin, read-out: cAMP assay pA2 (converted)

Known results for molecules:
                                   molecule      test_result
0  O=S(=O)(Nc1ncc(Cl)cc1F)c1c[nH]c2cc(Br)ccc12 [Compound I-290]        < 3.16 nM
1  N#Cc1cc(NS(=O)(=O)c2c[nH]c3cc(Cl)ccc23)c2c(c1)OC(F)(F)O2 [Compound I-132]  3.16 to 31.6 nM
2  O=S(=O)(Nc1ccc(F)cc1F)c1c[nH]c2nc(Br)ccc12 [Compound I-91]        > 31.6 nM
3  O=S(=O)(Nc1nc(F)c(Cl)cc1F)c1c[nH]c2c1ccc1cccnc12 [Compound I-316]  3.16 to 31.6 nM
4  O=S(=O)(Nc1cc(F)c(Br)cc1F)c1coc2cc(Cl)ccc12 [Compound I-259]        < 3.16 nM

Now look at this entry.
Ask: Item under review: O=S(=O)(Nc1ccc2nsnc2c1)c1c[nH]c2cc(Br)ccc12 [Compound I-183] . Reported Kb?
Result: < 3.16 nM
